procedure details: Permeability of the compound in PBS/EtOH at 100 ug/ml incubated for 16 hrs by PAMPA
Assay type: ADME
condition details: read-out: permeability
Outcome label depends on Papp at 16 h, 100 ug/ml relative to 10 ×10⁻⁶ cm/s: at/above gives fulfilled, below gives not fulfilled.

>  <smiles data>
COc1ccc(/C=N/NC(N)=S)cc1

>  <label class>
fulfilled

$$$$
>  <smiles data>
N/C(S)=N/N=C/c1ccc([N+](=O)[O-])cc1

>  <label class>
fulfilled

$$$$
>  <smiles data>
CCc1ccc(/C=N/NC(N)=S)cc1

>  <label class>
not fulfilled

$$$$
>  <smiles data>
NC(=S)N/N=C/c1ccccc1F

>  <label class>
fulfilled

$$$$
>  <smiles data>
NC(=S)N/N=C/c1cccc(F)c1

>  <label class>
fulfilled

$$$$
